procedure summary: activity coefficient (dimensionless); of the first substance listed, at infinite dilution; xn = mol fraction of the nth substance listed
settings: 338.15 K; 101.33 kPa; Liquid; Chromatography; x1 = 0
reported endpoint: activity coefficient
Keep the answer to the number alone.

CC1CCCCC1 [methylcyclohexane] + C[N+]1(CCCO)CCOCC1.N#C[N-]C#N :: 321

stdin: Give its activity coefficient value. Item: CCOC(C)(C)C [2-ethoxy-2-methylpropane] + C[n+]1ccn(CCCO)c1.N#CN=C=[N-]
stdout: 74.5

stdin: Param item = CCCO [propan-1-ol] + C[N+]1(CCCO)CCOCC1.N#C[N-]C#N ; retrieve measured activity coefficient.
stdout: 2.55

stdin: Reported activity coefficient, molecule CCCCCCCCC [nonane] + C[N+]1(CCCO)CCOCC1.N#C[N-]C#N : ____
stdout: 1340

====

procedure summary: activity coefficient (dimensionless); of the first substance listed, at infinite dilution; xn = mol fraction of the nth substance listed
settings: 318.15 K; 101.33 kPa; Liquid; Chromatography; x1 = 0
reported endpoint: activity coefficient
Please give the numeric answer without any surrounding text.

Here's what some known entries look like.
CC(C)=O [acetone] + C[N+]1(CCCO)CCOCC1.N#C[N-]C#N :: 2.24
C1CCCCCCC1 [cyclooctane] + C[n+]1ccn(CCCO)c1.N#CN=C=[N-] :: 181
CCC(=O)CC [pentan-3-one] + C[N+]1(CCCO)CCOCC1.N#C[N-]C#N :: 8.09
C=CCCCCCC [oct-1-ene] + C[n+]1ccn(CCCO)c1.N#CN=C=[N-] :: 305
C=CCCCCC [1-heptene] + C[n+]1ccn(CCCO)c1.N#CN=C=[N-] :: 176

stdin: What does the record list as activity coefficient for C1CCCC1 [cyclopentane] + C[n+]1ccn(CCCO)c1.N#CN=C=[N-] ?
stdout: 58.7

stdin: Would you mind telling me what activity coefficient value was observed for CCC[N+](=O)[O-] [1-nitropropane] + C[n+]1ccn(CCCO)c1.N#CN=C=[N-] ?
stdout: 2.69

stdin: I am curious: what activity coefficient value has been reported for CCC(C)O (configuration not stated) [butan-2-ol] + C[n+]1ccn(CCCO)c1.N#CN=C=[N-] ?
stdout: 2.74

====

procedure summary: activity coefficient (dimensionless); of the first substance listed, at infinite dilution; xn = mol fraction of the nth substance listed
settings: 318.15 K; 101.33 kPa; Liquid; Chromatography; x1 = 0
The molecules listed here are annotated with their activity coefficient.
Answer with the value's number alone.

CCCCO [butan-1-ol] + C[n+]1ccn(CCCO)c1.N#CN=C=[N-] :: 2.8
CC1CCCCC1 [methylcyclohexane] + C[n+]1ccn(CCCO)c1.N#CN=C=[N-] :: 169
C1CCCCC1 [cyclohexane] + C[N+]1(CCCO)CCOCC1.N#C[N-]C#N :: 319
Cc1ccc(C)cc1 [1,4-dimethylbenzene] + C[N+]1(CCCO)CCOCC1.N#C[N-]C#N :: 23.2
Cc1cccc(C)c1 [1,3-dimethylbenzene] + C[n+]1ccn(CCCO)c1.N#CN=C=[N-] :: 14.1
C1=CCCCC1 [cyclohexene] + C[n+]1ccn(CCCO)c1.N#CN=C=[N-] :: 36.1
CC1CCCCC1 [methylcyclohexane] + C[N+]1(CCCO)CCOCC1.N#C[N-]C#N :: 508
CCc1ccccc1 [ethylbenzene] + C[n+]1ccn(CCCO)c1.N#CN=C=[N-] :: 14.6

Attention now turns to another entry.
stdin: State the recorded activity coefficient for this entry: C#CCCCC [1-hexyne] + C[N+]1(CCCO)CCOCC1.N#C[N-]C#N
stdout: 42.9

====

procedure summary: activity coefficient (dimensionless); of the first substance listed, at infinite dilution; xn = mol fraction of the nth substance listed
settings: 368.15 K; 101.33 kPa; Liquid; Chromatography; x1 = 0
Catalogue of activity coefficient values
I'd appreciate a reply containing only the number, no unit.

Example compounds with recorded activity coefficient:
Cc1ccccc1 [toluene] + C[n+]1ccn(CCCO)c1.N#CN=C=[N-] :: 9.09
C#CCCCCC [1-heptyne] + C[N+]1(CCCO)CCOCC1.N#C[N-]C#N :: 68.1

stdin: I have this compound here, CCOC(C)=O [ethyl acetate] + C[N+]1(CCCO)CCOCC1.N#C[N-]C#N , and I need its recorded activity coefficient.
stdout: 10.1

stdin: State the recorded activity coefficient for this entry: CCO [ethanol] + C[N+]1(CCCO)CCOCC1.N#C[N-]C#N
stdout: 1.51

stdin: Could you tell me which activity coefficient is on file for CCO [ethanol] + C[n+]1ccn(CCCO)c1.N#CN=C=[N-] ?
stdout: 1.2

====

procedure summary: activity coefficient (dimensionless); of the first substance listed, at infinite dilution; xn = mol fraction of the nth substance listed
settings: 348.15 K; 101.33 kPa; Liquid; Chromatography; x1 = 0
// assign Yes if activity coefficient falls strictly below 20, else No (ties count as No)

CCOC(C)=O [ethyl acetate] + C[N+]1(CCCO)CCOCC1.N#C[N-]C#N :: Yes
COC(C)(C)C [2-methoxy-2-methylpropane] + C[n+]1ccn(CCCO)c1.N#CN=C=[N-] :: No
C=Cc1ccccc1 [styrene] + C[n+]1ccn(CCCO)c1.N#CN=C=[N-] :: Yes
C=CCCCCCC [oct-1-ene] + C[N+]1(CCCO)CCOCC1.N#C[N-]C#N :: No
C=CCCCCCCCC [1-decene] + C[N+]1(CCCO)CCOCC1.N#C[N-]C#N :: No
CCOCC [diethyl ether] + C[n+]1ccn(CCCO)c1.N#CN=C=[N-] :: No
CC(C)(C)O [2-methylpropan-2-ol] + C[n+]1ccn(CCCO)c1.N#CN=C=[N-] :: Yes
C1CCCCCC1 [cycloheptane] + C[n+]1ccn(CCCO)c1.N#CN=C=[N-] :: No

stdin: Criterion: activity coefficient strictly below 20. Is it met by CCCC(C)=O [pentan-2-one] + C[N+]1(CCCO)CCOCC1.N#C[N-]C#N ?
stdout: Yes

stdin: For this compound, is activity coefficient lower than 20? CCC[N+](=O)[O-] [1-nitropropane] + C[N+]1(CCCO)CCOCC1.N#C[N-]C#N
stdout: Yes

stdin: Hello, is activity coefficient of the following compound strictly smaller than 20? CC(C)O [propan-2-ol] + C[n+]1ccn(CCCO)c1.N#CN=C=[N-]
stdout: Yes

stdin: # check: activity coefficient < 20 for Cc1ccc(C)cc1 [1,4-dimethylbenzene] + C[N+]1(CCCO)CCOCC1.N#C[N-]C#N
stdout: No

stdin: Item C1COCCO1 [1,4-dioxane] + C[N+]1(CCCO)CCOCC1.N#C[N-]C#N : activity coefficient beneath 20, strictly?
stdout: Yes

stdin: Quick check: does CCc1ccccc1 [ethylbenzene] + C[N+]1(CCCO)CCOCC1.N#C[N-]C#N have activity coefficient under 20?
stdout: No

====

procedure summary: activity coefficient (dimensionless); of the first substance listed, at infinite dilution; xn = mol fraction of the nth substance listed
settings: 298.15 K; 101.33 kPa; Liquid; Chromatography; x1 = 0
Lab note: compare activity coefficient against 600. Equal or greater, write Fulfilled. Smaller, write Not fulfilled.

Look over these answered cases.
C=CCCCCC [1-heptene] + C[N+]1(CCCO)CCOCC1.N#C[N-]C#N :: Fulfilled
C#CCCC [1-pentyne] + C[n+]1ccn(CCCO)c1.N#CN=C=[N-] :: Not fulfilled
C#CCCCC [1-hexyne] + C[n+]1ccn(CCCO)c1.N#CN=C=[N-] :: Not fulfilled
CCC(C)CC [3-methylpentane] + C[n+]1ccn(CCCO)c1.N#CN=C=[N-] :: Not fulfilled
C=CCCCCCCCC [1-decene] + C[n+]1ccn(CCCO)c1.N#CN=C=[N-] :: Fulfilled
C#CCCCCCC [1-octyne] + C[n+]1ccn(CCCO)c1.N#CN=C=[N-] :: Not fulfilled

stdin: Check if activity coefficient >= 600 (inclusive). Item: C1CCCCCC1 [cycloheptane] + C[n+]1ccn(CCCO)c1.N#CN=C=[N-]
stdout: Not fulfilled

stdin: Could you please find out whether C1CCCCC1 [cyclohexane] + C[n+]1ccn(CCCO)c1.N#CN=C=[N-] has activity coefficient that meets 600 or exceeds it?
stdout: Not fulfilled

stdin: # bool: activity coefficient of C=CCCCCCC [oct-1-ene] + C[n+]1ccn(CCCO)c1.N#CN=C=[N-] >= 600
stdout: Not fulfilled

stdin: Please check the record CC1CCCCC1 [methylcyclohexane] + C[N+]1(CCCO)CCOCC1.N#C[N-]C#N and state if its activity coefficient is at or above 600.
stdout: Fulfilled

stdin: Could you please find out whether CCCCCCC [heptane] + C[n+]1ccn(CCCO)c1.N#CN=C=[N-] has activity coefficient that meets 600 or exceeds it?
stdout: Not fulfilled

stdin: Please check the record CCCCCC [hexane] + C[n+]1ccn(CCCO)c1.N#CN=C=[N-] and state if its activity coefficient is at or above 600.
stdout: Not fulfilled

stdin: Evaluate CCCCCCCC [octane] + C[N+]1(CCCO)CCOCC1.N#C[N-]C#N : activity coefficient at minimum 600?
stdout: Fulfilled

stdin: Say whether C=CCCCCCC [oct-1-ene] + C[N+]1(CCCO)CCOCC1.N#C[N-]C#N shows activity coefficient of 600 or more.
stdout: Fulfilled

stdin: Check if activity coefficient >= 600 (inclusive). Item: CCCCCCCC [octane] + C[n+]1ccn(CCCO)c1.N#CN=C=[N-]
stdout: Fulfilled

stdin: Given C1CCCC1 [cyclopentane] + C[n+]1ccn(CCCO)c1.N#CN=C=[N-] , state whether its activity coefficient is at least 600.
stdout: Not fulfilled

stdin: Form field: activity coefficient at least 600? Entry: CC(C)OC(C)C [diisopropyl ether] + C[N+]1(CCCO)CCOCC1.N#C[N-]C#N
stdout: Not fulfilled

stdin: Please indicate if the recorded activity coefficient for CCCCCCCCCC [decane] + C[n+]1ccn(CCCO)c1.N#CN=C=[N-] meets or exceeds 600.
stdout: Fulfilled

stdin: Confirm if activity coefficient reported for the molecule C1CCCCCCC1 [cyclooctane] + C[n+]1ccn(CCCO)c1.N#CN=C=[N-] is 600 or above.
stdout: Not fulfilled

stdin: Is activity coefficient for C=CCCCCC [1-heptene] + C[n+]1ccn(CCCO)c1.N#CN=C=[N-] at or above 600?
stdout: Not fulfilled

stdin: Hi team, for C#CCCCCC [1-heptyne] + C[n+]1ccn(CCCO)c1.N#CN=C=[N-] , is the recorded activity coefficient at or above 600?
stdout: Not fulfilled

stdin: Threshold query (activity coefficient >= 600) on C=CCCC [1-pentene] + C[n+]1ccn(CCCO)c1.N#CN=C=[N-]
stdout: Not fulfilled

stdin: Textbook exercise: given the entry C1=CCCCC1 [cyclohexene] + C[n+]1ccn(CCCO)c1.N#CN=C=[N-] , state whether its activity coefficient is greater than or equal to 600.
stdout: Not fulfilled
